Taken from ChEMBL document CHEMBL1201862.

Test system: MDA-MB-435
METHOD: NCI tumour cell line growth inhibition, 48 h
Active and inactive are the calls of the source. Rule as the data show it: active = GI50 up to about 1.1 µM and inactive = higher.
QUANTITY: GI50

COMPOUND | ASSAY SYSTEM | GI50
CC1(CC2=C(C(=O)NCCO[Si](C)(C)C(C)(C)C)C3(OCCO3)C2=O)OCCO1 | MDA-MB-435 | > 100 µM (inactive)
C=C(CN(C)C)C(=O)c1cc(C)ccc1C | MDA-MB-435 | 8.45 µM (inactive)
COc1cc2c(cc1OCCCC(=O)Nc1cc(C(=O)Nc3cc(C(=O)Nc4cc(C(=O)NCCCN(C)C)n(C)c4)n(C)c3)n(C)c1)N=C[C@@H]1CCCN1C2=O | MDA-MB-435 | 1.79 µM (inactive)

Please state recorded GI50 (tested on MDA-MB-435) of CCN1C(=S)n2cccc2C1CC(=O)c1ccc(Cl)cc1 (stereo not given) 56.1 µM (inactive)

Now the compound O=C(O)C1(Cc2ccc3c(c2)CCC3)Cc2ccccc2C1=O (stereo not given) > 100 µM (inactive)

----------
System: OVCAR-8
METHOD: NCI tumour cell line growth inhibition, 48 h
Active and inactive are the calls of the source. No stated cut-off is given here; in the data, active = GI50 up to about 1.1 µM and inactive = higher.
Outcome field: choose from active, inactive

These solved cases illustrate the format of a correct answer.
MOLECULE | QUALITATIVE LABEL
N#CC(C(=O)CCC(=O)Nc1cccc(Cl)c1)c1ccccc1 (centres undefined) | inactive
C[C@]12CC[C@H](O)C=C1CC[C@@H]1[C@@H]2CC[C@]2(C)C(c3ccc(=O)oc3)CC[C@]12O (some centres undefined) | active
Cc1ccccc1NC(=O)Cc1nc2ccccc2s1 | inactive
O=C(O)c1ccccc1/C=N/N=C1c2ccccc2-c2ccccc21 | inactive
CC(=O)N1C/C(=C\c2ccc(N(C)C)cc2)C(=O)/C(=C/c2ccc(N(C)C)cc2)C1 | inactive
COc1ccc(/C=C2\CCC(CNc3ccc(S(N)(=O)=O)cc3)C2=O)cc1 (centres undefined) | inactive
O=C1NCC(NC(=O)C(F)(F)F)c2c(Br)sc(Br)c21 (centres undefined) | inactive
Nc1c(C(=O)c2ccc(Cl)cc2)[nH]c(NCc2ccccc2)c1C(=S)Nc1ccccc1 | inactive

Hi, sorry to bother you, what did the test record for CC(C)C1CN1CC(O)Cn1ccnc1[N+](=O)[O-] (centres undefined) ? inactive

Now the molecule Cc1c(S(=O)(=O)N/C(=N\O)Nc2ccc(Cl)cc2)sc2ccc(Cl)cc12 inactive

Now the molecule COC(=O)c1cc(C)ccc1CC(Cc1ccccc1C)C(=O)OC (centres undefined) inactive

Now the molecule CC(=O)c1sc2c(c1OC(=O)c1cccs1)c(=O)n(-c1ccccc1)c(=S)n2-c1ccccc1 inactive

Now the molecule COc1cc2c(cc1OC)C1c3ccccc3CCN1CCC2.[O-][Cl+3]([O-])([O-])O (centres undefined) inactive

Now the molecule c1ccc2c(c1)Sc1ccccc1N2C1CN2CCC1CC2 (centres undefined) inactive

----------
System: MOLT-4
METHOD: NCI tumour cell line growth inhibition, 48 h
Activity calls are given as the source filed them. Cut-off read from the data, not from the text of the source: active = GI50 up to about 1.1 µM and inactive = higher.
QUANTITY: GI50

Observe how each entry below is paired with its result.
MOLECULE | ASSAY SYSTEM | GI50
CC(C)[C@H](NC(=O)OCc1ccccc1)C(=O)N[C@H](/C=C/C(=O)OC(C)(C)C)CO | MOLT-4 | > 100 µM (inactive)
COc1ccc(-c2c(CN3CCOCC3)sc3nc4ccccc4n23)cc1 | MOLT-4 | 10.3 µM (inactive)
C=C(C)[C@@H]1CC[C@]2(C(=O)O)CC[C@]3(C)[C@H](CC[C@@H]4[C@@]5(C)CC[C@H](C(=O)/C=C/c6ccc(O)cc6)C(C)(C)[C@@H]5CC[C@]43C)[C@@H]12 | MOLT-4 | 2.85 µM (inactive)

Fill in: GI50 of c1ccc2c(c1)sc1c3cnccc3ccc21 is ___ 19.5 µM (inactive)

Now the molecule NCCCNCCSSCCCCS(=O)O 5.09 µM (inactive)

Now the molecule CC(C)C1CC(CO)(CNc2nc(N)nc(Cl)c2C=O)C1 (stereo not drawn) 2.15 µM (inactive)

Now the molecule O=C1C=CC(=C(c2ccccc2)c2ccc(O)cc2)C=C1 3.33 µM (inactive)

Now the molecule COc1ccc(OC)c2sc(N3C(=O)/C(=C/c4ccccc4S)N=C3c3ccccc3)nc12 8.83 µM (inactive)
